Target: T1, DGI-2 (UniProt Q15004 1-111, limits assumed)
T1 construct: Soluble recombinant DGI-2 made by in vitro translation (RTS, pIVEX2.3-MCS vector) and coated on plates for the ELISA; vector tag not described; also called KIAA0101; DGI-2 polypeptide
T1 sequence (looked up): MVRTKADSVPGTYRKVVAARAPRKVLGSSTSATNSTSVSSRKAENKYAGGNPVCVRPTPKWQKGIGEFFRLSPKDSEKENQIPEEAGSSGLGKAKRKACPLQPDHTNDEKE
Assay: phage ELISA, coated DGI-2
No end group written: not given here.
metric_name: binding result

CGGWGAMWEAWVQGLNGAGC (not fully specified; cysteine pairing not given here, on M13 phage, pIII fusion with E-tag) [DGI-2-20R-3-D4] :: binds
QVGGMTQVGATVLSVVTGRGSCDGEDAWYPPGVTVGLGLC (on M13 phage, pIII fusion with E-tag) [DGI-2-40F-4-F97] :: binds
GLEPVPFQTDKRIAMGWTREWLVNGYGAAHRRDARMQSGH (on M13 phage, pIII fusion with E-tag) [DGI-2-40F-3-D6] :: binds

Sourced from patent US7056679
